Hey, just so you know, these numbers are from PubChem BioAssay (NCATS).

EXPERIMENT_SUMMARY: qHTS of pediatric cancer cell lines to identify multiple opportunities for drug repurposing: Confirmatory screen for SK-N-SH cells (AID 1347129);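 note: cells exposed to compound for 48 h before viability read; nearly all actives have a fitted effect of over 60% in size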
EXPERIMENTAL_SETUP: SK-N-SH neuroblastoma cell viability; series mostly up to 46.1 µM
Records with an inconclusive call do not appear. The source made the active and inactive calls. Calls come from the whole dose curve; as a rule, active = well fitted cell-killing curve with a large enough effect; inconclusive = small, poorly fitted or top-dose-only effect; inactive = flat fitted curve, though single readings scatter.
// classify into true = active, false = inactive

Recorded test call requested for `C[C@H]1C[C@H]2[C@@H]3CCC4=CC(=O)C=C[C@]4(C)[C@H]3C(=O)C[C@]2(C)[C@@]1(O)C(=O)CO`
false

What is the recorded call for this compound in the test? `N=C(N)c1ccc(OCCCOc2ccc(C(=N)N)cc2)cc1`
false

Per the records of this test, what outcome belongs to `O=[N+]([O-])c1ccc(O)c2ncccc12` ?
true

# outcome recorded in this test, key = `CC(=O)OCC(=O)[C@@]1(O)[C@H](OC(C)=O)C[C@H]2[C@@H]3CCC4=CC(=O)C=C[C@]4(C)[C@@]3(F)[C@@H](O)C[C@@]21C`
false

What outcome does the record of this test show for `CC(=O)[C@@]1(O)CC[C@H]2[C@@H]3C[C@H](C)C4=CC(=O)CC[C@]4(C)[C@H]3CC[C@@]21C` ?
false

Assay outcome for CCC(=O)O[C@]1(C(=O)COC)[C@@H](C)C[C@H]2[C@@H]3CCC4=CC(=O)C=C[C@]4(C)C3(F)[C@@H](O)C[C@@]21C (some centres undefined) : what was it?
false

Dear all, I need the recorded test outcome for `Cc1cc(OCCOCC[N+](C)(C)Cc2ccccc2)ccc1C(C)(C)CC(C)(C)C` , thank you.
true

Test call, this compound: `Nc1c2ccccc2nc2ccccc12`
true

// param item: `O=c1[nH]sc2cc(Cl)ccc12` ; yields the recorded call
false

====

System: MCC-13
EXPERIMENT_SUMMARY: qHTS assay to identify novel small-molecules to repurpose for Merkel cell carcinoma treatment (AID 1296009); note: nearly all actives have a fitted effect of over 60% in size
EXPERIMENTAL_SETUP: MCC and control cell lines, CellTiter-Glo viability, 72 h; series mostly up to 46 µM
Records with an inconclusive call do not appear. The source made the active and inactive calls. Calls come from the whole dose curve; as a rule, active = well fitted inhibition curve with a large enough effect; inconclusive = small, poorly fitted or top-dose-only effect; inactive = flat fitted curve, though single readings scatter. Where a SMILES comes first, the peptide text is derived from it. [ ]: non-standard residue; d: D form. pGlu = O=C1CC[C@@H](C(=O)O)N1
Outcome field: choose from active, inactive

What is the recorded call for this compound in the test? `CCOC(=O)C(=O)c1csc(NC=O)n1`
inactive

Can you look up the reported call for `C/C(=N/NC(=O)c1ccncc1)C(=O)O` for me?
inactive

Record request — test call for `C#Cc1ccc(-c2ccccc2F)cc1`
inactive

Lab log entry: CCNC(=O)[C@@H]1CCCN1C(=O)[C@H](CCCN=C(N)N)NC(=O)[C@H](CC(C)C)NC(=O)CNC(=O)[C@H](Cc1ccc(O)cc1)NC(=O)[C@H](CO)NC(=O)[C@H](Cc1c[nH]c2ccccc12)NC(=O)[C@H](Cc1cnc[nH]1)NC(=O)[C@@H]1CCC(=O)N1 ([pGlu]HWSYGLRP-NHEt) — outcome as called in the assay?
inactive

Could you kindly confirm the outcome this assay logged for `CCN1CCN(C(=O)N[C@@H](C(=O)N[C@@H]2C(=O)N3[C@@H]2SC(C)(C)[C@H]3C(=O)O)c2ccccc2)C(=O)C1=O` ?
inactive

I would be grateful if you could indicate the recorded call for `C1N2CN3CN1CN(C2)C3` .
inactive

What did the test return for `Nc1ccc([N+](=O)[O-])c(C(F)(F)F)c1` ?
inactive

What call does the record list for `Cc1cccc(C)c1NC(=O)c1ccc(N)cc1` ?
inactive

Per the assay record, what outcome was assigned to `CCC(=O)Oc1ccc2c(c1)CC[C@@H]1[C@@H]2CC[C@@]2(C)[C@H]1C[C@@H](OC(=O)CC)[C@@H]2OC(=O)CC` ?
inactive

Tell me the recorded outcome of this test for `CC(=O)OC/C=C(C)/C=C/C=C(C)/C=C/C1=C(C)CCCC1(C)C` .
inactive

So what was the verdict on C[N+]1(C)CCC(OC(=O)C(O)(c2ccccc2)C2CCCC2)C1 (stereo not given) in this test?
inactive

So what was the verdict on `OC1(c2ccc(Cl)c(C(F)(F)F)c2)CCN(CCCC(c2ccc(F)cc2)c2ccc(F)cc2)CC1` in this test?
active

Write down the call the test reported for this compound. Item: CN(C)CCOC(c1ccccc1)c1ccc(Br)cc1 (stereo not given)
inactive

Just curious, what result did `CC(=O)[C@@]1(O)CC[C@H]2[C@@H]3C[C@H](C)C4=CC(=O)CC[C@]4(C)[C@H]3CC[C@@]21C` get here?
inactive

Would you mind telling me which call this test gave `COc1ccc(CCC(C)=O)cc1` ?
inactive

Assay result, entry CC(=O)Nc1ccn(C2COC(COC(=O)c3ccccc3)O2)c(=O)n1 (stereo not given) — outcome?
inactive

# fetch the recorded call for `O=C(OCCN1CCOCC1)c1cccnc1Nc1cccc(C(F)(F)F)c1` here
inactive

Would you mind telling me which call this test gave `O=C1Nc2cc(Cl)ccc2Oc2ccccc21` ?
inactive

Could you please tell me the result logged for Cc1cccc(N(C)C(=S)Oc2ccc3c(c2)C2CCC3C2)c1 (stereo not given) in this assay?
inactive

Short answer needed: outcome of this test for `CCCCNc1ccc(C(=O)OCCN(CC)CC)cc1` ?
inactive

Hi team, can someone confirm the assay call for `CO[C@@H]1[C@@H](O[C@@H]2O[C@H](C)[C@@H](O[C@H]3C[C@@](C)(O)[C@@H](O)[C@H](C)O3)[C@H](N(C)C)[C@H]2O)[C@@H](CC=O)C[C@@H](C)[C@@H](O[C@@H]2CC[C@H](N(C)C)[C@@H](C)O2)/C=C/C=C/C[C@@H](C)OC(=O)C[C@H]1OC(C)=O` ?
inactive

Tell me the recorded outcome of this test for `CCc1cccc2c(CCO)c[nH]c12` .
inactive

Query: recorded result category for `CCC1(c2cnc[nH]2)Cc2ccccc2C1` in this test
inactive

Give the logged outcome of this assay for the following compound: Cn1cc(S(C)=O)c(=O)c2ccc(F)cc21 (stereo not given)
inactive

Just curious, what result did CCCOc1ccc2c(c1)CC[C@@H]1[C@@H]2CC[C@]2(C)C(OC)CC[C@@H]12 (stereo not given in full) get here?
inactive

Record request — test call for `C/C=C(/C(=C/C)c1ccc(OC(C)=O)cc1)c1ccc(OC(C)=O)cc1`
inactive

Status in this test for `CC(C)C(=O)OCc1cccc(OC(=O)[C@@H]2N3C(=O)[C@@H](NC(=O)Cc4ccccc4)[C@H]3SC2(C)C)c1` ?
inactive

What was the test verdict on `Brc1ccccc1-c1ccccc1` ?
inactive

For `C/C(=C1\CCOC(=O)S1)N(C=O)Cc1cnc(C)nc1N` , what call appears in the results of this test?
inactive

What is the recorded call for this compound in the test? `CCCC(=O)c1cc(O)c(O)cc1O`
inactive

Returns: the outcome recorded for `C=CCOc1cc(Cl)ccc1C(=O)NCCN(CC)CC` in this assay.
inactive

// return assay outcome for `CCO[C@H](Cc1ccc(OCCc2ccc(OS(C)(=O)=O)cc2)cc1)C(=O)O`
inactive

Please let me know the test result on file for `Nc1nnnn1-c1ccccc1` .
inactive

For `Cc1c(C)c2c(c(C)c1OC(=O)CCC(=O)OCCO)CC[C@@](C)(CCC[C@H](C)CCC[C@H](C)CCCC(C)C)O2` , what call appears in the results of this test?
inactive

Answer briefly: the call reported for Cc1cccc(OCC(O)CNC(C)(C)C)c1C (stereo not given) in this assay.
inactive

Answer briefly: the call reported for `C=CC[N+]1([C@H]2C[C@H]3[C@@H]4CC[C@H]5C[C@H](OC(C)=O)[C@@H](N6CCCCC6)C[C@]5(C)[C@H]4CC[C@]3(C)[C@H]2OC(=O)CC)CCCCC1` in this assay.
inactive

Assay result, entry CC(C(O)c1ccccc1)N(C)CCOC(c1ccccc1)c1ccccc1 (stereo not given) — outcome?
inactive

Hi, sorry to bother you, what did the test record for CCOC(=O)C(O)c1ccccc1 (stereo not given) ?
inactive

Hey, what did the test say about `O=S(=O)(O)c1ccc2nc(-c3ccccc3)[nH]c2c1` ?
inactive

Per the records of this test, what outcome belongs to `O=C(O)Cn1c(=O)n(Cc2ccc(Br)cc2F)c(=O)c2ccc(Cl)cc21` ?
inactive

====

EXPERIMENT_SUMMARY: Cell Viability - LYMP2-005 (AID 967);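 note: cells exposed to compound for 24 h at 37 °C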; note: potency is the fitted concentration of half-maximal effect
EXPERIMENTAL_SETUP: LYMP2-005 lymphoblastoid cell viability; series mostly up to 92.2 µM
Records with an inconclusive call do not appear. The source made the active and inactive calls. The call rests on the fitted dose curve; in most records, active means well fitted cell-killing curve with a large enough effect; inconclusive means small, poorly fitted or top-dose-only effect, or effect the other way; inactive means no such curve, though single readings can be large or run the other way.

{"columns": ["MOL", "Potency"],
 "data": [
  ["Nc1ccc(O)cc1", "25.1 µM (active)"],
  ["O=C(Oc1ccccc1)c1ccccc1O", "inactive"],
  ["COc1cc(C=O)ccc1O", "inactive"]
]}

====

EXPERIMENT_SUMMARY: Cell Viability - LYMP1-002 - Assay at 40 hr (AID 994); note: nearly all actives have a fitted effect of over 60% in size
EXPERIMENTAL_SETUP: LYMP1-002 lymphoblastoid cell viability; series mostly up to 92.2 µM
Records with an inconclusive call do not appear. The source made the active and inactive calls. The call rests on the fitted dose curve; in most records, active means well fitted cell-killing curve with a large enough effect; inconclusive means small, poorly fitted or top-dose-only effect; inactive means flat fitted curve, though single readings scatter.
Give one outcome, nothing more. List: active, inactive

State the result this test recorded for `Nc1cccc2c(N)cccc12` .
inactive

Tell me the recorded outcome of this test for `Nc1ccc(O)cc1` .
active

# outcome recorded in this test, key = `Brc1ccccc1-c1ccccc1`
inactive
